system: CCRIS mutagenicity, Ames/micronucleus/aberration tests; assay: CCRIS mutagenicity studies; conditions: Test System: AMES SALMONELLA TYPHIMURIUM; Strain/Indicator: TA100; Metabolic Activation: RAT, LIVER, S-9, AROCLOR 1254; Method: STANDARD PLATE
Active and inactive are the calls of the source. How the calls were made is not given here.
Response enum: y for active, n for inactive

molecule	class-name
O=S(O)S(=O)(=O)O	n
COc1cccc2c1cc1c3c(cc4c(c32)OCO4)C(=O)N1	y

Call for entry O=C(O)/C=C/c1ccc(O)c(O)c1 : n

What call does the record list for O=S(=O)(O)CNc1ccc(N=Nc2cccnc2)cc1 ? n

Per the records of this test, what outcome belongs to COC(=O)C1(C(N)=O)OC1(C)C(O)C(C)C (centres undefined) ? n

Hello, I am checking results. What call was entered for c1ccc2c(c1)ccc1c3c(ccc12)CCC3 ? n
